- Test system: Mannheimia haemolytica
- assay_overview: minimum inhibitory concentration (MIC)
- conditions_used: isolate (source animal id): 304
measure_name: minimum inhibitory concentration

compound	measure_name	result
CCCNC[C@]1(O)[C@H](C)O[C@@H](O[C@H]2[C@H](C)[C@@H](O[C@@H]3O[C@H](C)C[C@H](N(C)C)[C@H]3O)[C@](C)(O)C[C@@H](C)CN[C@H](C)[C@@H](O)[C@](C)(O)[C@@H](CC)OC(=O)[C@@H]2C)C[C@@]1(C)OC [Tulathromycin]	minimum inhibitory concentration	> 64 µg/mL
CC1(C)S[C@@H]2[C@H](NC(=O)Cc3ccccc3)C(=O)N2[C@H]1C(=O)O [Penicillin]	minimum inhibitory concentration	≤ 0.12 µg/mL
COc1cc(Cc2cnc(N)nc2N)cc(OC)c1OC.Cc1cc(NS(=O)(=O)c2ccc(N)cc2)no1 [trimethoprim-sulfamethoxazole]	minimum inhibitory concentration	≤ 2 µg/mL
CC[C@H]1OC(=O)C[C@@H](O)[C@H](C)[C@@H](O[C@@H]2O[C@H](C)[C@@H](O)[C@H](N(C)C)[C@H]2O)[C@@H](CCN2C[C@H](C)C[C@H](C)C2)C[C@@H](C)C(=O)/C=C/C(C)=C/[C@@H]1CO[C@@H]1O[C@H](C)[C@@H](O)[C@@H](OC)[C@H]1OC [Tilmicosin]	minimum inhibitory concentration	> 16 µg/mL

FYI, the data here is from the supplement of paper PMC8612539.
